The measurements presented in this section are drawn from ChEMBL document CHEMBL5055621.

experiment: Cmax in female mouse at 100 mg/kg, po administered as single dose; conditions: in vivo
reported-property: Cmax (µM)
Enter your answer as a number in µM; do not include the unit.

Per the record, O=C(NC[C@H](c1ccc(Cl)cc1)N1CCOCC1)c1sc(-c2ncccn2)nc1C(F)(F)F has Cmax of 140

---

biological target: P2X purinoceptor 7 (Rattus norvegicus); assay: Antagonist activity at rat P2X7 receptor expressed in HEK293 cells assessed as inhibition of BzATP-induced current at -60 mV by whole cell QPatch electrophysiology; format: cell-based
Sequence (Q64663 whole entry): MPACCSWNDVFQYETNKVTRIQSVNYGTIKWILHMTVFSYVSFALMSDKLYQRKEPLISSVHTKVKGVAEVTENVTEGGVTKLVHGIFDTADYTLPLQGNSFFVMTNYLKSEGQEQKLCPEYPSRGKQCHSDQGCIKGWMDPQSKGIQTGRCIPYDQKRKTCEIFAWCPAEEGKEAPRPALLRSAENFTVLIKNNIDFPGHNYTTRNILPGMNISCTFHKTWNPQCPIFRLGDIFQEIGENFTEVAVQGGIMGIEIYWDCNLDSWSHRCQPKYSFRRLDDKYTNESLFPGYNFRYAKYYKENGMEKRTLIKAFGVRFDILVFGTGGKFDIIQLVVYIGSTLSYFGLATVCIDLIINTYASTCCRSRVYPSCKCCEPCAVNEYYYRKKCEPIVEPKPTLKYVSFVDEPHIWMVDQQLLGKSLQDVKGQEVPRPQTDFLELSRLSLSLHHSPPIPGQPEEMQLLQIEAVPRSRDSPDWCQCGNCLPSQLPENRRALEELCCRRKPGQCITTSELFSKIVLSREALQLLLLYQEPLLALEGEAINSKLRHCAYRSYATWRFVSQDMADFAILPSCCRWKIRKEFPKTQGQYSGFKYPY
reported-property: IC50 (µM)
Enter your answer as a number in µM; do not include the unit.

Record O=C(NC[C@H](c1ccc(Cl)cc1)N1CCOCC1)c1sc(-c2ncccn2)nc1C(F)(F)F ; system P2X purinoceptor 7 (Rattus norvegicus); IC50 = 0.066

---

assay: Tmax in rat at 2 mg/kg, po; type: ADME, organism-based; conditions: in vivo
reported-property: Tmax (min)
Enter your answer as a number in min; do not include the unit.

Per the record, O=C(NC[C@H](c1ccc(Cl)cc1)N1CCOCC1)c1sc(-c2ncccn2)nc1C(F)(F)F has Tmax of 34.8
